# System: KM12
# assay_procedure: NCI tumour cell line growth inhibition, 48 h
The source made the active and inactive calls. No stated cut-off is given here; in the data, active = GI50 up to about 1.1 µM and inactive = higher.
Labels: T (active), F (inactive)

- compound: "COc1ccc(C(=O)C(c2ccc(OCc3ccccc3)cc2)c2ccc(OCc3ccccc3)cc2)cc1"
  qualitative_label: "F"
- compound: "Nc1ccc2nc(Nc3ccc(F)cc3)cnc2c1"
  qualitative_label: "F"
- compound: "O=C(c1ccco1)N1CCCN(C(=O)c2ccco2)C1=S"
  qualitative_label: "F"
- compound: "O=C1CSC(c2cccc(Cl)c2)N1c1c(O)c(Cl)cc(Br)c1Cl (centres undefined)"
  qualitative_label: "F"
- compound: "CCc1n[nH]c(=O)n1N1C(=O)CCC1=O"
  qualitative_label: "F"
- compound: "CC[C@@H](/C=C\\CCC(=O)C[C@H](O)CCC=C(C)C)O[Si](C(C)C)(C(C)C)C(C)C"
  qualitative_label: "F"
- compound: "Nc1ccccc1C(=O)/C=C/c1c(O)ccc2ccccc12"
  qualitative_label: "F"
- compound: "CC(=O)Nc1ccc2c(C(=O)O)c(C)c(O)nc2n1"
  qualitative_label: "F"
- compound: "COc1ccc(C=C2C(=O)NC(=S)NC2=O)c2ccccc12"
  qualitative_label: "F"
- compound: "CCOC(=O)CCC(NC(=O)c1ccc(OCc2ccc3nc(OC)c(OC)nc3c2)cc1)C(=O)OCC (centres undefined)"
  qualitative_label: "F"
- compound: "NC(Cc1cc(Br)c(O)c(Br)c1)C(=O)O (centres undefined)"
  qualitative_label: "F"
- compound: "O=[N+]([O-])c1ccc(Cl)c(C2CC(c3cccc4ccccc34)=Nc3ccccc3S2)c1 (centres undefined)"
  qualitative_label: "F"
- compound: "O=C1CC[C@H](NC(=O)Cc2ccccc2)C(=O)N1 [ANTINEOPLASTON A10]"
  qualitative_label: "F"
- compound: "O=C1N[C@H]2[C@H](O)[C@H](O)[C@@H](O)[C@H](O)[C@@H]2c2cc3c(c(O)c21)OCO3"
  qualitative_label: "T"
- compound: "O=C(Nc1ccc(Cl)cc1)c1cc2c(cc1Cl)Sc1nccn1S2(=O)=O"
  qualitative_label: "F"
- compound: "CCN(CC)CC(O)CNc1ccc(NCC2CO2)c2c1C(=O)c1ccccc1C2=O (centres undefined)"
  qualitative_label: "T"
- compound: "COC(=O)c1cc2c(=O)n(C)c3ccccc3n2c1C(=O)OC"
  qualitative_label: "F"
- compound: "CCCCCCCCC/C=C1\\CCC(CN2CCOCC2)C1=O (centres undefined)"
  qualitative_label: "F"
- compound: "Cc1cc(C)c(-n2c(-c3ccccc3)cs/c2=N\\N=C2C=C(C(C)(C)C)C(=O)C(C(C)(C)C)=C2)c(C)c1"
  qualitative_label: "F"
- compound: "CC(C)(C)NCCC(O)c1cc(C(F)(F)F)nc2c(C(F)(F)F)cccc12 (centres undefined)"
  qualitative_label: "F"
- compound: "CN(C)C(=O)N1N[C@H](c2ccccc2)[C@@H]1c1ccccc1"
  qualitative_label: "F"
- compound: "CN1C/C(=C\\c2cccs2)C2=NN(c3ccccc3)C(c3cccs3)C2C1 (centres undefined)"
  qualitative_label: "F"
- compound: "CN(C)C=C1C(=O)N(C)C(=O)N(C)C1=O"
  qualitative_label: "F"
- compound: "O=c1nc(NC2CCCCO2)ccn1CCO (centres undefined)"
  qualitative_label: "F"
